test system: NIH3T3; experiment: Cytotoxic Profiling of Annotated Libraries Using Quantitative High-Throughput Screening (AID 1296008); conditions: Five cell lines viability, CellTiter-Glo ATP luminescence, 48-72 h; also: nearly all actives have a fitted effect of over 60% in size
Inconclusive results are not listed. Activity calls are given as the source filed them. Calls follow the shape of the dose curve; as a rule, active = well fitted inhibition curve with a large enough effect; inconclusive = small, poorly fitted or top-dose-only effect; inactive = flat fitted curve, though single readings scatter.
Measured Metric: outcome

smiles_entry=O=C1OCCN1/N=C/c1ccc([N+](=O)[O-])o1 measured_metric=outcome endpoint_value=inactive
smiles_entry=CCCCS(=O)(=O)N[C@@H](Cc1ccc(OCCCCC2CCNCC2)cc1)C(=O)O measured_metric=outcome endpoint_value=inactive
smiles_entry=CC(C)(C(=O)c1cccnc1)c1cccnc1 measured_metric=outcome endpoint_value=inactive

---

test system: CP252; assay: qHTS profiling for inhibitors of Plasmodium falciparum proliferation (AID 504749); also: nearly all actives have a fitted effect of over 60% in size; also: potency is read from the fitted curve at half-maximal effect; conditions: P. falciparum in erythrocytes, SYBR Green DNA, 72 h; series mostly up to 28.7 µM
Records with an inconclusive call do not appear. The source made the active and inactive calls. Calls follow the shape of the dose curve; as a rule, active = well fitted inhibition curve with a large enough effect; inconclusive = small, poorly fitted or top-dose-only effect; inactive = flat fitted curve, though single readings scatter.
Measured Metric: Potency

These recorded examples may help you get a feel for the data.
compound=OCc1ccccc1O endpoint_value=inactive
compound=C[C@]12CC[C@@H]3c4ccc(O)cc4CC[C@H]3[C@@H]1CC[C@@H]2O endpoint_value=inactive
compound=CN(C)CCCOc1nn(Cc2ccccc2)c2ccccc12 endpoint_value=inactive
compound=C1CCc2nnnn2CC1 endpoint_value=inactive
compound=CCN1CCC[C@H]1CNC(=O)c1c(OC)ccc(Br)c1OC endpoint_value=inactive

Let us move to another entry and its Potency.
Recorded Potency of "COc1ccc(/C=C/C(=O)c2ccc(OC)cc2OC)cc1" , please. 5.01 µM (active)

---

Assay: qHTS of pediatric cancer cell lines to identify multiple opportunities for drug repurposing: Primary screen for NB1643 cells (AID 1347099); also: nearly all actives have a fitted effect of over 50% in size
Conditions: NB1643 neuroblastoma viability, CellTiter-Glo luminescence, 48 h; series mostly up to 46 µM
Procedure: Drug repurposing or repositioning has been offered as a strategy for drug development in oncology programs. This approach has special potential for childhood cancers and other rare or orphan diseases, where the expected return on new drug development has been a disincentive to pharmaceuticals. […] We employed a titration-based paradigm (quantitative high-throughput screening or qHTS), where all compounds were tested at multiple concentrations for their effect on cell viability. […]
Records with an inconclusive call do not appear. Active and inactive are the calls of the source. Calls follow the shape of the dose curve; as a rule, active = well fitted cell-killing curve with a large enough effect; inconclusive = small, poorly fitted or top-dose-only effect; inactive = no such curve, though single readings can be large or run the other way.
Form entry, call: pick from active, inactive

// return assay outcome for "CCC(=O)c1c(O)cc(O)cc1O" inactive

// return assay outcome for "CCOc1ccc2nc3cc(N)ccc3c(N)c2c1" inactive

// return assay outcome for "N[C@@H](CCC(=O)N[C@@H](CS)C(=O)NCC(=O)O)C(=O)O" inactive

// return assay outcome for "Clc1ccc2c(c1)CCc1cccnc1C2=C1CCNCC1" inactive

// return assay outcome for "CCOC(=O)/C=C(C)/C=C/C=C(C)/C=C/c1c(C)cc(OC)c(C)c1C" inactive

// return assay outcome for "Cc1cccc(C)c1NC(=O)CN1CCN(CCCC(c2ccc(F)cc2)c2ccc(F)cc2)CC1" inactive

// return assay outcome for COc1ccc(OC)c(C(O)CNC(=O)CN)c1 (stereo unspecified) inactive

// return assay outcome for "O=C1[C@H]2CCCC[C@H]2C(=O)N1CCCCN1CCN(c2nsc3ccccc23)CC1" inactive

// return assay outcome for "CCCCC(=O)O[C@]1(C(=O)CO)CC[C@H]2[C@@H]3CCC4=CC(=O)CC[C@]4(C)[C@H]3[C@@H](O)C[C@@]21C" inactive

// return assay outcome for "COc1cc(-c2ccc(=O)[nH]n2)ccc1OC(F)F" inactive

// return assay outcome for CCOc1ccc(NC(=O)CC(C)O)cc1 (stereo unspecified) inactive

// return assay outcome for "CCOC(=O)COc1ccc2c(C)c(CCN(CC)CC)c(=O)oc2c1Cl" inactive

// return assay outcome for "CC(C)(Oc1ccc(Cl)cc1)C(=O)O" inactive

// return assay outcome for "O=C(CCCN1CCC(O)(c2ccc(Br)cc2)CC1)c1ccc(F)cc1" active

// return assay outcome for CCCC(=O)Nc1ccc(OCC(O)CNC(C)C)c(C(C)=O)c1 (stereo unspecified) inactive

// return assay outcome for "COc1cc(/C=C/C(=O)O[C@H]2CC[C@]34C[C@]35CC[C@]3(C)[C@@H]([C@H](C)CCC=C(C)C)CC[C@@]3(C)[C@@H]5CC[C@H]4C2(C)C)ccc1O" inactive

// return assay outcome for "N[C@H](Cc1c[nH]c2ccccc12)C(=O)O" inactive

// return assay outcome for "Cc1cc(O)c(C(C)C)cc1Cl" inactive

// return assay outcome for Cc1c(F)c(N2CCNC(C)C2)cc2c1c(=O)c(C(=O)O)cn2C1CC1 (stereo unspecified) inactive

// return assay outcome for "NC[C@H]1O[C@H](O[C@H]2[C@H](O)[C@@H](O[C@H]3O[C@H](CO)[C@@H](O)[C@H](N)[C@H]3O)[C@H](N)C[C@@H]2N)[C@H](N)[C@@H](O)[C@@H]1O" inactive

// return assay outcome for "CN(C/C=C/c1ccccc1)Cc1cccc2ccccc12" inactive

Data provenance: PubChem BioAssay (NCATS)
